Target: ALPP (Homo sapiens, UniProt P05187)
Sequence (P05187 with tags, fused parts or gaps): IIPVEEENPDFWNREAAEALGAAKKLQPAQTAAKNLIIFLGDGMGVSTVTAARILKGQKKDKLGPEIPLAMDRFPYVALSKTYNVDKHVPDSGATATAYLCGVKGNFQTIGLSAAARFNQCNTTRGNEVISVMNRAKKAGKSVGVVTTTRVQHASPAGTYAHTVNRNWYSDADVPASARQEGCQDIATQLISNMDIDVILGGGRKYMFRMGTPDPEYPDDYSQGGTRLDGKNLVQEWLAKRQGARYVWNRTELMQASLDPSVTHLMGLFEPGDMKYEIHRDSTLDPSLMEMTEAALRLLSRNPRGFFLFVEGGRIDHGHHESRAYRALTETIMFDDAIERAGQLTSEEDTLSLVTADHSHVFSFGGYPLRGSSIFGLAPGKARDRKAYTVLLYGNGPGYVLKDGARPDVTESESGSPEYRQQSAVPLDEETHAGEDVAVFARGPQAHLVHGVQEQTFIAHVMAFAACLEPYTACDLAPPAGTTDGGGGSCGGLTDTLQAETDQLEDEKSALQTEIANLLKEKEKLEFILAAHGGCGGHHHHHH
Assay: BLI binding kinetics, human ALPP immobilised on AR2G sensors (KD / KD apparent)
Details: VHH domains
Property Measured: hALPP Kd

// known answers, use as guide
| Molecule | Property Measured | Test Value |
| --- | --- | --- |
| D04: ALPP/ALPPL2 targeting VHH domain, SEQ ID NO: 26 (protein) VHH: QVQLVESGGGLVQPGGSLRLSCAASESTFSINVMGWYRQAPGKQRELVATITSGDITNYADSVKGRFTISRDNAENTVYLRTNSLKPEDTAVYYCNARGEYHSGNEYDYWGQGTQVTVSS | hALPP Kd | <1e-07 s⁻¹ |
| G03: ALPP targeting VHH domain, SEQ ID NO: 38 (protein) VHH: QVQLVESGGGTAQAGGSLRLACAASGRSVTMGWLGWVPRAERDDLEFITWFNWGTYYANSVNGRFTISTDNADNTVYPQMNRLKPENPAVYYCASFTGYRPLINRLNDVSDCGHGALVAVSS | hALPP Kd | <1e-07 s⁻¹ |

Next up:
**Query** Specify reported hALPP Kd for the molecule shown: H09: ALPP targeting VHH domain, SEQ ID NO: 39 (protein) VHH: QVQLVESGGGSVQTGGSLRLSCAASGPSLSNYAMGWFRQAPGKEREFVAGISWGGGRTNYLDSVKGRFTISRDNAKNTMYLQMNSLKPEDTAVYYCAGRYGRGRDVEYEYDYWGQGTQVTVSS
**Result** <1e-07 s⁻¹
